Source listed as ChEMBL document CHEMBL3351497.

# assayedTarget: Integrin alpha-V/beta-3 (Homo sapiens, UniProt P05106+P06756)
# Sequence (P05106 27-788 limits assumed): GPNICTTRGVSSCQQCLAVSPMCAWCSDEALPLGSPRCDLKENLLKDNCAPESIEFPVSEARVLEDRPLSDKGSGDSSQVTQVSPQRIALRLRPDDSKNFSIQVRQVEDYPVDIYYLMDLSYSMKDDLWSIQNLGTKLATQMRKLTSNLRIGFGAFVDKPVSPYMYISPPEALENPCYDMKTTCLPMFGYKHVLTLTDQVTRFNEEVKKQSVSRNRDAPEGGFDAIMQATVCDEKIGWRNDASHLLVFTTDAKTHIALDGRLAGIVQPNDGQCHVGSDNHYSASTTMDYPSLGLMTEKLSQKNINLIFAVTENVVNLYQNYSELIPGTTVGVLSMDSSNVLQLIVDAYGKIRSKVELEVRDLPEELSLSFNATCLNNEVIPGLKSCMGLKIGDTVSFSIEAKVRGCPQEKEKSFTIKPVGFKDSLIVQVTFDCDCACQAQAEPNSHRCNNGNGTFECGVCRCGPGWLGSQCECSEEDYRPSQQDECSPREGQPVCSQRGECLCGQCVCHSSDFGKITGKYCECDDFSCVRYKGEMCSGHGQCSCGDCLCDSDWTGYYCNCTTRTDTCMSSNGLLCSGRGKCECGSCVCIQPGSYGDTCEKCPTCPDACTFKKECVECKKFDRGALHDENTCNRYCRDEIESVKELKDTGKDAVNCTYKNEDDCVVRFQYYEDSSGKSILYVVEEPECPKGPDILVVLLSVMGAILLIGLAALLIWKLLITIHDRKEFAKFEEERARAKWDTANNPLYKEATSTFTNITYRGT
# Sequence (P06756 31-889 limits assumed): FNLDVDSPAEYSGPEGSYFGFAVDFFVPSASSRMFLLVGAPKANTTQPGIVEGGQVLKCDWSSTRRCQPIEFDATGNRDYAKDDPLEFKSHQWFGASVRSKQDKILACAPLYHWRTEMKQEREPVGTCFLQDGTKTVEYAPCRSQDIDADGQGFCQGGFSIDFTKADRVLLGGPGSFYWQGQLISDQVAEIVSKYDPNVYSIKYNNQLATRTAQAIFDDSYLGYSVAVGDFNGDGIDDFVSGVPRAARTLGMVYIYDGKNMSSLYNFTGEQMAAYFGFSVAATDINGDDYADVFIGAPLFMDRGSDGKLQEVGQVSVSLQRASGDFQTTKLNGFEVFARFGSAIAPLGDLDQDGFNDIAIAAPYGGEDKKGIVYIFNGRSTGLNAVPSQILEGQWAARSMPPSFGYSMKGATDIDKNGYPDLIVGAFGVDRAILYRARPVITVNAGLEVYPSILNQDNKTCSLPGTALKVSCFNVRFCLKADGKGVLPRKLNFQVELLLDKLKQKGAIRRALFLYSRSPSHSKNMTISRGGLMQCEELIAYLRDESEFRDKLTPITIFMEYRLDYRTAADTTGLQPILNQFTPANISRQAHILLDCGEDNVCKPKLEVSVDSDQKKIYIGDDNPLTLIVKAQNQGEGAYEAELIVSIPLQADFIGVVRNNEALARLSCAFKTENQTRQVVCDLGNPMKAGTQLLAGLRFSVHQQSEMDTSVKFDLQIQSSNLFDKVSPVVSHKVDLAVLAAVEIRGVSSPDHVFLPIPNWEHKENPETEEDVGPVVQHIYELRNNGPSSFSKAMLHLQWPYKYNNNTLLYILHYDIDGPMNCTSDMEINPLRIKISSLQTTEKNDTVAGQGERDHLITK
# Sequence (P06756 891-1048 limits assumed): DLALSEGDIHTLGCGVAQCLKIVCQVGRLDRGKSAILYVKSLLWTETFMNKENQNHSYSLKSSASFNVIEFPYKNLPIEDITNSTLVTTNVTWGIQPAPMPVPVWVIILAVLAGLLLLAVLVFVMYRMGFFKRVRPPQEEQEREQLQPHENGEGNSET
# methodNotes: Inhibition of integrin alphavbeta3 (unknown origin)-mediated K562 cell adhesion to LAPb1 coated surface by fluorescence analysis
# Type: cell-based
Lab note: compare IC50 with 100 nM, writing T if less and F if equal or more.

**Q:** Here's an entry: COc1ccccc1C(CC(=O)O)NC(=O)CCCCc1ccc2c(n1)NCCC2 (racemic) . Is its IC50 below 100 nM?
**A:** F

**Q:** Please determine if O=C(O)CC(NC(=O)CCCCc1ccc2c(n1)NCCC2)c1cc(Cl)cc(Cl)c1 (racemic) is below 100 nM in terms of IC50.
**A:** F

**Q:** Below 100 nM on IC50? Entry COc1ccc(C(CC(=O)O)NC(=O)CCCCc2ccc3c(n2)NCCC3)cc1 (racemic)
**A:** T

**Q:** Determine if Cc1cccc(C(CC(=O)O)NC(=O)CCCCc2ccc3c(n2)NCCC3)c1 (racemic) shows IC50 strictly lower than 100 nM.
**A:** F

**Q:** Please indicate whether the reported IC50 of Cc1ccccc1C(CC(=O)O)NC(=O)CCCCc1ccc2c(n1)NCCC2 (racemic) is strictly below 100 nM.
**A:** T

**Q:** Below 100 nM on IC50? Entry O=C(O)CC(NC(=O)CCCCc1ccc2c(n1)NCCC2)c1ccc(Cl)c(Cl)c1 (racemic)
**A:** T

**Q:** Is IC50 of O=C(O)CC(NC(=O)CCCCc1ccc2c(n1)NCCC2)c1ccc(Cl)c(C(F)(F)F)c1 (single isomer, unassigned; enantiomer 2) strictly below 100 nM?
**A:** F

**Q:** Given N#Cc1ccc(C(CC(=O)O)NC(=O)CCCCc2ccc3c(n2)NCCC3)cc1 (racemic) , is recorded IC50 strictly lower than 100 nM?
**A:** T

**Q:** State whether 100 nM exceeds IC50 recorded for O=C(O)CC(NC(=O)CCCCc1ccc2c(n1)NCCC2)c1ccccc1Cl (racemic) .
**A:** F

**Q:** Item O=C(O)CC(NC(=O)CCCCc1ccc2c(n1)NCCC2)c1cc(Cl)cc(Cl)c1 (stereo in doubt; 37E1) : IC50 beneath 100 nM, strictly?
**A:** F

**Q:** Bench note: check whether COc1cccc(C(CC(=O)O)NC(=O)CCCCc2ccc3c(n2)NCCC3)c1 (racemic) shows IC50 below 100 nM
**A:** T

**Q:** API: query returns whether the compound falls strictly under 100 nM in IC50. Query: O=C(O)CC(NC(=O)CCCCc1ccc2c(n1)NCCC2)c1ccc(Cl)c(C(F)(F)F)c1 (single isomer, unassigned; enantiomer 1)
**A:** F

**Q:** Criterion: IC50 strictly below 100 nM. Is it met by O=C(O)CC(NC(=O)CCCCc1ccc2c(n1)NCCC2)c1ccc(Cl)cc1 (racemic) ?
**A:** F

**Q:** Below 100 nM on IC50? Entry Cc1cc(C)cc(C(CC(=O)O)NC(=O)CCCCc2ccc3c(n2)NCCC3)c1 (racemic)
**A:** F

**Q:** Does the reported IC50 of O=C(O)CC(NC(=O)CCCCc1ccc2c(n1)NCCC2)c1ccccc1F (racemic) stay below 100 nM?
**A:** F

**Q:** Record O=C(O)CC(NC(=O)CCCCc1ccc2c(n1)NCCC2)c1ccc(Cl)c(C(F)(F)F)c1 (racemic) : is its IC50 strictly below 100 nM?
**A:** F

**Q:** Is the reported IC50 for O=C(O)CC(NC(=O)CCCCc1ccc2c(n1)NCCC2)c1cccc(OC(F)(F)F)c1 (racemic) strictly below 100 nM?
**A:** F

**Q:** Quick check: IC50 of Cc1ccc(C(CC(=O)O)NC(=O)CCCCc2ccc3c(n2)NCCC3)cc1C (racemic) under 100 nM?
**A:** T

**Q:** Does the reported IC50 of "O=C(O)C[C@@H](NC(=O)CCCCc1ccc2c(n1)NCCC2)c1cccc(C(F)(F)F)c1" stay below 100 nM?
**A:** F

**Q:** Lab note: confirm whether the reported IC50 for this compound is below 100 nM, equality not counting. compound: O=C(O)CC(NC(=O)CCCCc1ccc2c(n1)NCCC2)c1cc(Cl)cc(Cl)c1 (single isomer, unassigned; enantiomer 2)
**A:** F

**Q:** Here's an entry: CS(=O)(=O)c1ccc(C(CC(=O)O)NC(=O)CCCCc2ccc3c(n2)NCCC3)cc1 (racemic) . Is its IC50 below 100 nM?
**A:** F

**Q:** Would you kindly verify if IC50 of O=C(O)CC(NC(=O)CCCCc1ccc2c(n1)NCCC2)c1cccc(Cl)c1Cl (racemic) is strictly less than 100 nM?
**A:** F

**Q:** Threshold test, IC50 < 100 nM: O=C(O)CC(NC(=O)CCCCc1ccc2c(n1)NCCC2)c1cccc(C(F)(F)F)c1 (racemic)
**A:** F

**Q:** Here's an entry: O=C(O)CC(NC(=O)CCCCc1ccc2c(n1)NCCC2)c1cccc(F)c1 (racemic) . Is its IC50 below 100 nM?
**A:** T

**Q:** Input O=C(O)CC(NC(=O)CCCCc1ccc2c(n1)NCCC2)c1cccc(Cl)c1 (racemic) ; condition: IC50 strictly below 100 nM. Does it hold?
**A:** T

**Q:** I'd appreciate it if you could check whether N#Cc1cccc(C(CC(=O)O)NC(=O)CCCCc2ccc3c(n2)NCCC3)c1 (racemic) has IC50 smaller than 100 nM.
**A:** F

**Q:** Field: below-cutoff. Rule: recorded IC50 strictly less than 100 nM. Subject: Cc1ccc(C(CC(=O)O)NC(=O)CCCCc2ccc3c(n2)NCCC3)cc1 (racemic)
**A:** T

**Q:** Does the reported IC50 of the following compound sit strictly below 100 nM? O=C(O)CC(NC(=O)CCCCc1ccc2c(n1)NCCC2)c1ccc(C(F)(F)F)cc1 (racemic)
**A:** F

**Q:** Could you please tell me whether IC50 recorded for O=C(O)CC(NC(=O)CCCCc1ccc2c(n1)NCCC2)c1ccc2c(c1)OCO2 (racemic) is less than 100 nM?
**A:** T

**Q:** Field: below-cutoff. Rule: recorded IC50 strictly less than 100 nM. Subject: O=C(O)CC(NC(=O)CCCCc1ccc2c(n1)NCCC2)c1ccc2c(c1)CCC2 (racemic)
**A:** F

**Q:** I wonder whether O=C(O)CC(NC(=O)CCCCc1ccc2c(n1)NCCC2)c1ccc(OC(F)(F)F)cc1 (racemic) has IC50 below 100 nM. Can you tell?
**A:** F
